Test: molar heat capacity at constant pressure
Settings: 340.15 K; 101.33 kPa; Liquid; DSC
Numbers after ± are expanded uncertainties.
measurement.type: molar heat capacity at constant pressure

1. CCCCC[n+]1ccn(CCCC)c1.O=S(=O)([N-]S(=O)(=O)C(F)(F)F)C(F)(F)F; 718.67 ± 28 J/K/mol
2. CCCC[n+]1ccn(C2CCCC2)c1.O=S(=O)([N-]S(=O)(=O)C(F)(F)F)C(F)(F)F; 683.91 ± 26 J/K/mol
3. CCCCn1cc[n+](C(CC)CC)c1.O=S(=O)([N-]S(=O)(=O)C(F)(F)F)C(F)(F)F; 729.04 ± 28 J/K/mol
4. CCCCn1cc[n+](CCC(C)C)c1.O=S(=O)([N-]S(=O)(=O)C(F)(F)F)C(F)(F)F; 718.15 ± 28 J/K/mol

----------
Assay: molar heat capacity at constant pressure
Settings: 306.15 K; 101.33 kPa; Liquid; DSC
measurement.type: molar heat capacity at constant pressure (J/K/mol)

1. CCCCn1cc[n+](CCC(C)C)c1.O=S(=O)([N-]S(=O)(=O)C(F)(F)F)C(F)(F)F; 691.33
2. CCCCn1cc[n+](C(CC)CC)c1.O=S(=O)([N-]S(=O)(=O)C(F)(F)F)C(F)(F)F; 702.56
3. CCCCC[n+]1ccn(CCCC)c1.O=S(=O)([N-]S(=O)(=O)C(F)(F)F)C(F)(F)F; 692.76
4. CCCC[n+]1ccn(C2CCCC2)c1.O=S(=O)([N-]S(=O)(=O)C(F)(F)F)C(F)(F)F; 657.63

----------
Experiment: molar heat capacity at constant pressure
Conditions: 331.15 K; 101.33 kPa; Liquid; DSC
measurement.type: molar heat capacity at constant pressure (J/K/mol)

1. CCCCC[n+]1ccn(CCCC)c1.O=S(=O)([N-]S(=O)(=O)C(F)(F)F)C(F)(F)F; 711.87
2. CCCC[n+]1ccn(C2CCCC2)c1.O=S(=O)([N-]S(=O)(=O)C(F)(F)F)C(F)(F)F; 676.8
3. CCCCn1cc[n+](CCC(C)C)c1.O=S(=O)([N-]S(=O)(=O)C(F)(F)F)C(F)(F)F; 711.16
4. CCCCn1cc[n+](C(CC)CC)c1.O=S(=O)([N-]S(=O)(=O)C(F)(F)F)C(F)(F)F; 722.48

----------
Recorded mass density by entry
Conditions: 297.15 K; 101.33 kPa; Liquid; Vibrating tube method
measurement.type: mass density (kg/m3)

1. CCCC[n+]1ccn(C2CCCC2)c1.O=S(=O)([N-]S(=O)(=O)C(F)(F)F)C(F)(F)F; 1375.7
2. CCCCC[n+]1ccn(CCCC)c1.O=S(=O)([N-]S(=O)(=O)C(F)(F)F)C(F)(F)F; 1318.3
3. CCCCn1cc[n+](CCC(C)C)c1.O=S(=O)([N-]S(=O)(=O)C(F)(F)F)C(F)(F)F; 1319.1
4. CCCCn1cc[n+](C(CC)CC)c1.O=S(=O)([N-]S(=O)(=O)C(F)(F)F)C(F)(F)F; 1320.4

----------
Conditions: 301.15 K; 101.33 kPa; Liquid; Sing-around technique in a fixed-path interferometer
measurement.type: speed of sound (m/s)

1) CCCCn1cc[n+](C(CC)CC)c1.O=S(=O)([N-]S(=O)(=O)C(F)(F)F)C(F)(F)F; 1205.1
2) CCCCC[n+]1ccn(CCCC)c1.O=S(=O)([N-]S(=O)(=O)C(F)(F)F)C(F)(F)F; 1206.7
3) CCCC[n+]1ccn(C2CCCC2)c1.O=S(=O)([N-]S(=O)(=O)C(F)(F)F)C(F)(F)F; 1263.8
4) CCCCn1cc[n+](CCC(C)C)c1.O=S(=O)([N-]S(=O)(=O)C(F)(F)F)C(F)(F)F; 1210.4
